Hello, the source for this data is PubChem BioAssay (EPA / NIEHS), in case you need it.

read-out: Interleukin-8 (IL8), CXCL8 (gene 3576); test: BSK_3C_IL8: BioMAP Diversity Plus: 3C Assay for Interleukin-8 (IL8) Biomarker Activity (AID 2283020); conditions: primary human endothelial cells (HUVEC); actives raise or lower the signal
Activity calls are given as the source filed them. The calls were made as follows: active = hit-call score of the fitted dose curve at least 0.9, where 1 is the maximum; inactive = score below 0.9.
I would appreciate it if you answered using one of these outcomes: Yes for active, No for inactive

Solved cases below.
compound	groupLabel
ClC1=C(Cl)C2(Cl)C3C(Cl)C(Cl)CC3C1(Cl)C2(Cl)Cl (configuration not stated)	Yes
Cc1cccc(N)c1	No
O=C(O)C=CC(F)(C(F)(F)F)C(F)(F)F	No
CN(C)C(=O)Cl	No
CCOP(=S)(OCC)SCSc1ccc(Cl)cc1	No
CCOP(=S)(Oc1ccc([N+](=O)[O-])cc1)c1ccccc1 (configuration not stated)	No

// param item: "c1cc2c3c(cccc3c1)CC2" ; yields the recorded call No
